Hey, just so you know, these numbers are from patent US6498254B1.

- Tested on: CMV Davis strain
- test details: Activity against HCMV: virus-induced cytopathicity in HEL cells
- Assay type: cell-based, human cytomegalovirus (HCMV)
- measurement context: estimate of percent protection of HEL cells at the compound concentration
property: Antiviral % Inhibition Davis strain

## Task Report Antiviral % Inhibition Davis strain, nothing else, for this compound: Cc1ccc(C)c(C(C)S(=O)(=O)c2c(Cl)ccc[n+]2[O-])c1 (centres unmarked)
## Result 10.0%

## Task Report Antiviral % Inhibition Davis strain, nothing else, for this compound: Cc1ccc(C)c(C(Cl)S(=O)(=O)c2cccc(C)[n+]2[O-])c1 (centres unmarked)
## Result 40.0%

## Task Report Antiviral % Inhibition Davis strain, nothing else, for this compound: [O-][n+]1cc(Cl)ccc1SCc1ccccc1 [Compound 151, 5-chloro-2(benzylthio)pyridine-N-oxide]
## Result 20.0%

## Task Report Antiviral % Inhibition Davis strain, nothing else, for this compound: COCC(c1cc(C)ccc1C)S(=O)(=O)c1ccccn1 (centres unmarked)
## Result 40.0%

## Task Report Antiviral % Inhibition Davis strain, nothing else, for this compound: Cc1ccc[n+]([O-])c1[S+]([O-])Cc1c(Cl)cccc1Cl (centres unmarked)
## Result 20.0%

## Task Report Antiviral % Inhibition Davis strain, nothing else, for this compound: O=[N+]([O-])c1cc(CS(=O)(=O)c2cccc[n+]2[O-])ccc1Cl
## Result 10.0%

## Task Report Antiviral % Inhibition Davis strain, nothing else, for this compound: Cc1ccc([N+](=O)[O-])c(CS(=O)(=O)c2cccc[n+]2[O-])c1
## Result 20.0%

## Task Report Antiviral % Inhibition Davis strain, nothing else, for this compound: Cc1ccc(C)c(CS(=O)(=O)c2ccccn2)c1
## Result 20.0%

---

compounds and their reported melting point

## Task Report melting point, nothing else, for this compound: Cc1ccc(C)c(C(C)Sc2cc(C)c3ccccc3n2)c1 (stereo not drawn) [Compound 162]
## Result 84 to 85 °C

---

- Test system: HIV-1 (IIIB)
- test details: Inhibition of HIV-1 syncytium formation in CEM cells
- Type: cell-based
- measurement context: Human immunodeficiency virus 1, CCRF-CEM; HIV-1 (IIIB) infected CEM cells, syncytium formation, day four post infection; read-out: EC50 (μg/ml) HIV-1
compounds and their reported log10 of EC50
# log10 transformed; quantity=EC50; unit=µg/mL

## Task Report log10 of EC50, nothing else, for this compound: Cc1ccc(C)c(CS(=O)(=O)c2ccccn2)c1 [Compound 150, 2-(2,5-dimethylbenzylsulfonyl)pyridine]
## Result 0.51

---

molecules and their reported EC50
- Test system: HIV-1 (IIIB)
- test details: Inhibition of HIV-1 syncytium formation in CEM cells
- Assay type: cell-based
- measurement context: Human immunodeficiency virus 1, IIIB, CCRF-CEM, read-out: EC50 (μg/ml) HIV-1

Past entries and their recorded results:
INSERT INTO measurements (chemical_string, target_desc, observed_result) VALUES
  ('Cc1ccc(C)c(CSc2ccccn2)c1', 'HIV-1 (IIIB)', '> 20 µg/mL'),
  ('Cc1ccc(C)c(CSc2c(Cl)ccc[n+]2[O-])c1', 'HIV-1 (IIIB)', '0.14 µg/mL');

Alright, here's another molecule for you.
## Task Report EC50, nothing else, for this molecule: Cc1ccc(C)c(CSc2cccc[n+]2C)c1
## Result > 4 µg/mL
